Every entry's value here was drawn from patent US10517889B2.

# method-notes: Hematology assays after oral gavage in CD-1 mice (Example 7)
# Assay type: in vivo
# Parameters: unit not given here
# measurement-conditions: 500 mg/kg oral gavage once daily for 4 weeks
reported-property: RBC
Lab note: record just the number, no unit beside it.

Entry under test: 830037 (antisense CTATTGGCTGATCTGG; 3-10-3 cEt gapmer, further chemistry not given here) [compound 830037] . Its RBC was 10.1

Entry under test: 830121 (AGAATCAAGCCCTGGC; 3-10-3 cEt gapmer, further chemistry not given here) [compound 830121] . Its RBC was 10.0

Entry under test: 829994 (GGAGGCAGGGCCGCGA; 3-10-3 cEt gapmer, further chemistry not given here) [compound 829994] . Its RBC was 10.1

Entry under test: 798781 (CGTAAGATTCACAGCA; 3-10-3 cEt gapmer, further chemistry not given here) [compound 798781] . Its RBC was 10.1

Entry under test: 790615 (CCAATGAGAATGCTTC; 3-10-3 cEt gapmer, further chemistry not given here) [compound 790615] . Its RBC was 10.1

Entry under test: 830025 (antisense TTTGTAAATCGAAAGC; 3-10-3 cEt gapmer, further chemistry not given here) [compound 830025] . Its RBC was 10.1

====

# Test system: human SMAD7 mRNA
# method-notes: Dose-dependent inhibition of human SMAD7 mRNA expression in Hep3B cells (Example 3, Study 1 and 2)
# Format: cell-based
# measurement-conditions: 5000.0 nM, electroporation, approximately 16 hours, Study 1
Strand notation (5' to 3'): a small letter for the sugar, then the base; units joined by * are phosphorothioate-linked, units joined directly phosphodiester-linked; [ ] holds rarer units or linkages, { } end groups; capitals alone tell only the bases. e = 2'-O-(2-methoxyethyl) (MOE); [5mC] = 5-methylcytosine; d = 2'-deoxy (DNA)
reported-property: % inhibition of SMAD7 mRNA expression (%)
Give your result in % as a bare value.

Item 771474 (antisense eG*e[5mC]*eA*eG*e[5mC]*d[5mC]*dG*dA*dT*dT*dT*dT*dG*d[5mC]*dT*e[5mC]*e[5mC]*eG*e[5mC]*eA) [compound 771474] was tested on human SMAD7 mRNA; the reported % inhibition of SMAD7 mRNA expression is 21

Item 771891 (antisense e[5mC]*eT*e[5mC]*e[5mC]*e[5mC]*dA*dA*dG*d[5mC]*d[5mC]*dT*dA*d[5mC]*dA*dT*eA*eT*eT*eT*e[5mC]) [compound 771891] was tested on human SMAD7 mRNA; the reported % inhibition of SMAD7 mRNA expression is 10

Item 771717 (antisense eT*e[5mC]*e[5mC]*e[5mC]*eA*dT*d[5mC]*dT*dA*dT*d[5mC]*dG*dA*dA*dT*e[5mC]*eA*e[5mC]*e[5mC]*e[5mC]) [compound 771717] was tested on human SMAD7 mRNA; the reported % inhibition of SMAD7 mRNA expression is 0

Item 771776 (antisense e[5mC]*eT*e[5mC]*eA*eG*d[5mC]*dA*dA*dG*d[5mC]*dT*d[5mC]*dA*dG*dT*eT*e[5mC]*e[5mC]*eT*eG) [compound 771776] was tested on human SMAD7 mRNA; the reported % inhibition of SMAD7 mRNA expression is 36

====

# System: human SMAD7 mRNA
# method-notes: Dose-dependent inhibition of human SMAD7 mRNA expression in Hep3B cells (Example 3, Study 1 and 2)
# Assay type: cell-based
# measurement-conditions: 20000.0 nM, electroporation, approximately 16 hours, Study 1
Strand notation (5' to 3'): a small letter for the sugar, then the base; units joined by * are phosphorothioate-linked, units joined directly phosphodiester-linked; [ ] holds rarer units or linkages, { } end groups; capitals alone tell only the bases. e = 2'-O-(2-methoxyethyl) (MOE); [5mC] = 5-methylcytosine; d = 2'-deoxy (DNA)
reported-property: % inhibition of SMAD7 mRNA expression (%)
Give your result in % as a bare value.

Entry under test: 771838 (antisense eG*eA*eA*e[5mC]*eT*d[5mC]*d[5mC]*dT*dG*d[5mC]*dA*dG*dG*dA*dT*eG*eA*eG*eG*eG) [compound 771838] . Its % inhibition of SMAD7 mRNA expression was 43

Entry under test: 771390 (antisense e[5mC]*eG*eG*e[5mC]*eT*dG*d[5mC]*d[5mC]*d[5mC]*d[5mC]*dA*d[5mC]*d[5mC]*d[5mC]*d[5mC]*eG*e[5mC]*eG*e[5mC]*eG) [compound 771390] . Its % inhibition of SMAD7 mRNA expression was 51

Entry under test: 771794 (antisense eG*eA*eA*eG*e[5mC]*dA*dA*dG*dT*d[5mC]*dA*d[5mC]*dT*dG*d[5mC]*e[5mC]*eT*eT*e[5mC]*eT) [compound 771794] . Its % inhibition of SMAD7 mRNA expression was 41

Entry under test: 771776 (antisense e[5mC]*eT*e[5mC]*eA*eG*d[5mC]*dA*dA*dG*d[5mC]*dT*d[5mC]*dA*dG*dT*eT*e[5mC]*e[5mC]*eT*eG) [compound 771776] . Its % inhibition of SMAD7 mRNA expression was 67

Entry under test: 771891 (antisense e[5mC]*eT*e[5mC]*e[5mC]*e[5mC]*dA*dA*dG*d[5mC]*d[5mC]*dT*dA*d[5mC]*dA*dT*eA*eT*eT*eT*e[5mC]) [compound 771891] . Its % inhibition of SMAD7 mRNA expression was 33

====

# Test system: human SMAD7 mRNA
# method-notes: Antisense inhibition of human SMAD7 mRNA expression in Hep3B cells by 5-10-5 MOE gapmers, single concentration, electroporation, RT-PCR (Example 1, Study 1 and 2)
# Assay type: cell-based
# measurement-conditions: electroporation, 15,000 nM, approximately 24 hours, relative to untreated control cells, gapmers targeting SEQ ID NO: 1 and 2
Strand notation (5' to 3'): a small letter for the sugar, then the base; units joined by * are phosphorothioate-linked, units joined directly phosphodiester-linked; [ ] holds rarer units or linkages, { } end groups; capitals alone tell only the bases. e = 2'-O-(2-methoxyethyl) (MOE); [5mC] = 5-methylcytosine; d = 2'-deoxy (DNA)
reported-property: % inhibition of SMAD7 mRNA expression (%)
Give your result in % as a bare value.

Entry under test: 771462 (antisense e[5mC]*eT*eG*eG*eA*d[5mC]*dA*d[5mC]*dA*dG*dT*dA*dG*dA*dG*e[5mC]*e[5mC]*eT*e[5mC]*e[5mC]) [compound 771462] . Its % inhibition of SMAD7 mRNA expression was 31

Entry under test: 771470 (antisense eG*e[5mC]*eA*e[5mC]*e[5mC]*dT*dT*d[5mC]*dT*dG*d[5mC]*dA*d[5mC]*d[5mC]*dA*eG*e[5mC]*eT*eG*eA) [compound 771470] . Its % inhibition of SMAD7 mRNA expression was 56

Entry under test: 771557 (antisense eA*eT*eG*eA*e[5mC]*d[5mC]*dG*d[5mC]*d[5mC]*d[5mC]*d[5mC]*d[5mC]*d[5mC]*dT*dT*e[5mC]*eA*eT*eA*e[5mC]) [compound 771557] . Its % inhibition of SMAD7 mRNA expression was 19

====

# System: human SMAD7 mRNA
# method-notes: Antisense inhibition of human SMAD7 mRNA expression in Hep3B cells by 3-10-3 cEt gapmers, 10,000 nM, electroporation (Example 2)
# Format: cell-based
# measurement-conditions: Hep3B cells, electroporation with 10,000 nM antisense oligonucleotide, approximately 24 hours, primer probe set RTS5062, relative to untreated control cells
Strand notation (5' to 3'): a small letter for the sugar, then the base; units joined by * are phosphorothioate-linked, units joined directly phosphodiester-linked; [ ] holds rarer units or linkages, { } end groups; capitals alone tell only the bases. k = constrained ethyl (cEt); [5mC] = 5-methylcytosine; d = 2'-deoxy (DNA)
Please go through the items and note down their % inhibition of SMAD7 mRNA expression.
Give your result in % as a bare value.

Entry under test: 799044 (k[5mC]*kA*kG*dA*dG*d[5mC]*d[5mC]*dG*dT*dG*d[5mC]*dT*d[5mC]*k[5mC]*kT*kG; antisense) [compound 799044] . Its % inhibition of SMAD7 mRNA expression was 0

Entry under test: 799477 (antisense kG*kT*kT*d[5mC]*d[5mC]*dA*dT*dA*dG*dG*d[5mC]*dA*dG*k[5mC]*k[5mC]*kA) [compound 799477] . Its % inhibition of SMAD7 mRNA expression was 4

Entry under test: 799218 (k[5mC]*kA*kT*dT*dT*dG*dT*dT*dA*dT*dT*dT*dG*k[5mC]*kA*kT; antisense) [compound 799218] . Its % inhibition of SMAD7 mRNA expression was 0

====

# method-notes: Hematology assays after subcutaneous administration in CD-1 mice (Example 6)
# Format: in vivo
# measurement-conditions: 50 mg/kg subcutaneous twice weekly for 7 weeks
Strand notation (5' to 3'): a small letter for the sugar, then the base; units joined by * are phosphorothioate-linked, units joined directly phosphodiester-linked; [ ] holds rarer units or linkages, { } end groups; capitals alone tell only the bases. k = constrained ethyl (cEt); [5mC] = 5-methylcytosine; d = 2'-deoxy (DNA)
Just a reminder that ties go to not fulfilled: only Lymphocytes strictly below 80% counts as fulfilled.

Regarding 830027 (antisense kA*kA*k[5mC]*d[5mC]*dA*dT*dT*dT*dA*dT*d[5mC]*dT*dG*kG*kT*kG) [compound 830027] , kindly confirm whether its Lymphocytes is beneath 80%. fulfilled

Regarding 790615 (CCAATGAGAATGCTTC; 3-10-3 cEt gapmer, further chemistry not given here) [compound 790615] , kindly confirm whether its Lymphocytes is beneath 80%. not fulfilled

Regarding 830121 (AGAATCAAGCCCTGGC; 3-10-3 cEt gapmer, further chemistry not given here) [compound 830121] , kindly confirm whether its Lymphocytes is beneath 80%. fulfilled

Regarding 830025 (antisense TTTGTAAATCGAAAGC; 3-10-3 cEt gapmer, further chemistry not given here) [compound 830025] , kindly confirm whether its Lymphocytes is beneath 80%. not fulfilled

Regarding 798781 (CGTAAGATTCACAGCA; 3-10-3 cEt gapmer, further chemistry not given here) [compound 798781] , kindly confirm whether its Lymphocytes is beneath 80%. fulfilled
